- PROTOCOL: Aqueous solubility assay in Normal Ringer Solution
- MEASUREMENT_CONDITIONS: Normal Ringer Solution, saline or isotonic, kinetic from dmso stock
The reader will find reported solubility at 40 min values listed item by item below.

# RECORD_SMILES, UNITS_LABEL, RELATION_QUALIFIER, solubility at 40 min
rows = [
    ("OCc1cc(Oc2ccccc2Cl)ccc1N1CC[C@H](Nc2ncccc2Cl)C1", "µM", "=", 0.5),
    ("OCc1ccccc1-c1ccc(N2CC[C@H](Oc3ccc(C(F)(F)F)cn3)C2)c(CO)c1", "µM", ">", 0.67),
    ("COCc1ccccc1Oc1ccc(N2CC[C@H](Oc3ncccc3Cl)C2)c(CCO)c1", "µM", "=", 1.4),
    ("COc1ccccc1-c1ccc(N2CC[C@H](Oc3ccc(C(F)(F)F)cn3)C2)c(CO)n1", "µM", "=", 0.84),
]

====

Collected IC50 values appear next to each entry.
- EXPERIMENTAL_TARGET: hTRPV3 (Homo sapiens (Human))
- Sequence (Q8NET8 whole entry): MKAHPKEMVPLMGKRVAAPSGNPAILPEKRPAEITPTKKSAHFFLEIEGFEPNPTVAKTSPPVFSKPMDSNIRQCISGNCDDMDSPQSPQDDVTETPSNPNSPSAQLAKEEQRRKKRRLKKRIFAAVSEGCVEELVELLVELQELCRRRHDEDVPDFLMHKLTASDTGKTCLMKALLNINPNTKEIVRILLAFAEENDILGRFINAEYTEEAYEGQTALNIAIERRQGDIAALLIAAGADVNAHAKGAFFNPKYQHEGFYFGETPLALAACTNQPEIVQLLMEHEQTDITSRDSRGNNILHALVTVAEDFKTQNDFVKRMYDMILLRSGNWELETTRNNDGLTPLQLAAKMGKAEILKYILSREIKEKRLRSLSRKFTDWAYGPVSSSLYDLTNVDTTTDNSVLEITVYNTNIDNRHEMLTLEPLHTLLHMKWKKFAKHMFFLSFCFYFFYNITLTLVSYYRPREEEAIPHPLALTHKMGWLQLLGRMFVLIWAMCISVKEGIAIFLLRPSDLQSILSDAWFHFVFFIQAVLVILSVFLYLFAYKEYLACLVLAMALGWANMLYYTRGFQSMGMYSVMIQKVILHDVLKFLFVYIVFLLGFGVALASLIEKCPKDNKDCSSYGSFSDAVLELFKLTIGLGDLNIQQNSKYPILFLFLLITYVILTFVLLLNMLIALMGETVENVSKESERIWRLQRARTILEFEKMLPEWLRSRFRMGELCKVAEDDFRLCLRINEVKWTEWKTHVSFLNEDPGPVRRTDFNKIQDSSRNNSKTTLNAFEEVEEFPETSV
- PROTOCOL: Whole-cell patch clamp, hTRPV3 Phase 1 / Phase 2 currents
- Format: cell-based
- MEASUREMENT_CONDITIONS: Phase 2 current, inward, whole-cell patch clamp; read-out: hTRPV3 Patch P2 Inwd
MEASUREMENT_LABEL: IC50

# COMPOUND, RESULT
measured = [
    ("OC[C@@H]1C[C@@H](Oc2ccc(C(F)(F)F)cn2)CN1c1ccc(-c2ccccc2)cc1", "> 1 µM"),
    ("OCCCc1cc(-c2ccccc2)ccc1N1CC[C@H](Oc2ncccc2C(F)(F)F)C1", "0.1 to 1 µM"),
    ("NC(=O)c1ccc(-c2ccccc2)cc1N1CC[C@H](Oc2ccc(C(F)(F)F)cn2)C1", "> 1 µM"),
    ("NC(=O)c1cc(Cl)ccc1N1CC[C@H](Oc2ccc(C(F)(F)F)cn2)C1", "0.1 to 1 µM"),
    ("O=C(c1ccc(C(F)(F)F)cn1)N1CCC(c2ccc(-c3ccccc3)nc2CO)C1 (centres unmarked)", "0.1 to 1 µM"),
    ("Cc1ccc(O[C@H]2CCN(c3ccc(-c4ccccc4C#N)nc3CO)C2)nc1", "> 1 µM"),
    ("OCc1cc(-c2ccccc2)ccc1N1CC[C@@H](Oc2ccc(C(F)(F)F)cn2)C1", "0.1 to 1 µM"),
    ("OCc1nc(-c2ccccc2)ccc1N1CC[C@H](Oc2nc(C(F)(F)F)cs2)C1", "> 1 µM"),
    ("OCc1cc(Oc2ccccc2Cl)ccc1N1CC[C@H](Oc2ncccc2Cl)C1", "0.01 to 0.1 µM"),
    ("CC(=O)c1ccc(Oc2ccc(N3CC[C@H](Oc4ccccn4)C3)c(CO)c2)c(F)c1", "0.1 to 1 µM"),
    ("OCc1cc(-c2ccccc2)ccc1N1CC[C@H](Oc2ccc(C(F)(F)F)nn2)C1", "> 1 µM"),
    ("Cc1cccnc1O[C@H]1CCN(c2ccc(-c3ccccc3C#N)nc2CO)C1", "> 1 µM"),
    ("OCc1cc(Oc2ccccc2F)ccc1N1CC[C@H](Oc2ncccc2Cl)C1", "< 0.01 µM"),
    ("NC(=O)c1cc(-c2ccccc2)ccc1N1CC[C@@H](Oc2ncccc2Cl)C1", "0.1 to 1 µM"),
    ("Cc1ccccc1C(O)c1ccc(N2CC[C@H](Oc3ncccc3Cl)C2)c(CO)c1 (some centres unmarked)", "0.1 to 1 µM"),
    ("O=C(CO)c1cc(-c2ccccc2)ccc1N1CC[C@H](Oc2ccc(C(F)(F)F)cn2)C1", "0.1 to 1 µM"),
    ("CC(C)Oc1ccccc1N1CC[C@H](Oc2ccc3cc(Cl)ccc3n2)C1", "> 1 µM"),
]

====

- EXPERIMENTAL_TARGET: hTRPV3 (Homo sapiens (Human))
- PROTOCOL: Whole-cell patch clamp, hTRPV3 Phase 1 / Phase 2 currents
- Format: cell-based
- MEASUREMENT_CONDITIONS: Phase 1 current, inward, whole-cell patch clamp; read-out: hTRPV3 Patch P1 Inwd

# MOLECULE, EXPERIMENTAL_TARGET, IC50
data = [
    ("CCc1ccccc1-c1ccc(C2CCN(C(=O)c3cccc(Cl)n3)C2)c(CO)c1 (centres unmarked) [Compound 2-53]", "hTRPV3 (Homo sapiens (Human))", "< 10 nM"),
    ("CCc1ccccc1Oc1ccc(C2CCN(C(=O)c3ncccc3Cl)C2)c(C(N)=O)c1 (centres unmarked) [Compound 2-37]", "hTRPV3 (Homo sapiens (Human))", "> 1000 nM"),
    ("NC(=O)c1cc(-c2ccccc2)cnc1N1CC[C@H](Nc2ccc(C(F)(F)F)cn2)C1 [Compound 1-374]", "hTRPV3 (Homo sapiens (Human))", "> 1000 nM"),
    ("COc1ccccc1-c1ccc(N2CC[C@H](Oc3ccc(C(F)(F)F)cn3)C2)c(CO)c1 [Compound 1-151]", "hTRPV3 (Homo sapiens (Human))", "100 to 1000 nM"),
    ("CCc1ccccc1C(O)c1ccc(N2CC[C@H](Nc3ncccc3Cl)C2)c(CO)c1 (some centres unmarked) [Compound 1-386]", "hTRPV3 (Homo sapiens (Human))", "> 1000 nM"),
    ("CC(C)c1ccccc1Oc1ccc(C2CCN(C(=O)c3ncccc3Cl)C2)c(CO)c1 (centres unmarked) [Compound 2-12]", "hTRPV3 (Homo sapiens (Human))", "10 to 100 nM"),
    ("COCc1ccccc1Oc1ccc(N2CC[C@H](Oc3ncccc3F)C2)c(CCO)c1 [Compound 1-351]", "hTRPV3 (Homo sapiens (Human))", "100 to 1000 nM"),
    ("Cc1ccccc1-c1ccc(N2CC[C@H](Oc3ccc(Cl)cn3)C2)c(CO)n1 [Compound 1-195]", "hTRPV3 (Homo sapiens (Human))", "100 to 1000 nM"),
    ("O=C(c1cccc(F)c1)c1ccc(N2CC[C@H](Oc3ncccc3Cl)C2)c(CCO)c1 [Compound 1-311]", "hTRPV3 (Homo sapiens (Human))", "100 to 1000 nM"),
    ("FC(F)(F)c1ccc(O[C@H]2CCN(c3ccccc3OC3CCCC3)C2)nc1 [Compound 1-25]", "hTRPV3 (Homo sapiens (Human))", "> 1000 nM"),
    ("OCc1cc(C(O)c2ccccc2Cl)ccc1N1CC[C@H](Oc2ncccc2Cl)C1 (some centres unmarked) [Compound 1-262]", "hTRPV3 (Homo sapiens (Human))", "10 to 100 nM"),
    ("CC(C)c1ccccc1-c1ccc([C@H]2CCN(C(=O)c3ccc(F)cn3)C2)c(CO)c1 [Compound 2-78]", "hTRPV3 (Homo sapiens (Human))", "100 to 1000 nM"),
    ("Cc1ccccc1-c1ccc(N2CC[C@H](Oc3ncccc3C)C2)c(CCO)c1 [Compound 1-198]", "hTRPV3 (Homo sapiens (Human))", "100 to 1000 nM"),
    ("NC(=O)c1cc(Cc2ccccc2)ccc1N1CC[C@H](Oc2ncccc2Cl)C1 [Compound 1-145]", "hTRPV3 (Homo sapiens (Human))", "> 1000 nM"),
    ("COC(C)c1ccccc1Oc1ccc(N2CC[C@H](Oc3ccccn3)C2)c(CCO)c1 (some centres unmarked) [Compound 1-357]", "hTRPV3 (Homo sapiens (Human))", "100 to 1000 nM"),
    ("CCc1ccccc1-c1ccc(C2CCN(C(=O)c3ncccc3Cl)C2)c(CO)c1 (centres unmarked) [Compound 2-52]", "hTRPV3 (Homo sapiens (Human))", "10 to 100 nM"),
    ("Oc1cc(-c2ccccc2Cl)ccc1N1CC[C@@H](Oc2ccc(C(F)(F)F)cn2)C1 [Compound 1-113]", "hTRPV3 (Homo sapiens (Human))", "100 to 1000 nM"),
    ("OCc1cc([C@H](O)c2ccccc2Cl)ccc1N1CC[C@H](Oc2ncccc2F)C1 [Compound 1-322]", "hTRPV3 (Homo sapiens (Human))", "100 to 1000 nM"),
    ("CCc1ccccc1C(O)c1ccc(N2CC[C@H](Oc3ncccc3Cl)C2)c(CO)c1 (some centres unmarked) [Compound 1-260]", "hTRPV3 (Homo sapiens (Human))", "> 1000 nM"),
    ("CCc1ccccc1C(O)c1ccc(N2CC[C@H](Nc3ncccc3Cl)C2)c(CCO)c1 (some centres unmarked) [Compound 1-385]", "hTRPV3 (Homo sapiens (Human))", "> 1000 nM"),
    ("CC(C)c1ccccc1Oc1ccc(C2CCN(C(=O)c3ccc(Cl)cn3)C2)c(C(N)=O)c1 (centres unmarked) [Compound 2-32]", "hTRPV3 (Homo sapiens (Human))", "100 to 1000 nM"),
    ("CC(C)c1ccccc1-c1ccc(C2CCN(C(=O)c3ccccn3)C2)c(C(N)=O)c1 (centres unmarked) [Compound 2-45]", "hTRPV3 (Homo sapiens (Human))", "100 to 1000 nM"),
    ("COCc1ccc(C(O)c2ccc(N3CC[C@H](Oc4ncccc4Cl)C3)c(CO)c2)cc1 (some centres unmarked) [Compound 1-290]", "hTRPV3 (Homo sapiens (Human))", "> 1000 nM"),
    ("O=C(c1cccc(Cl)c1)c1ccc(N2CC[C@H](Nc3ccc(F)cn3)C2)c(CCO)c1 [Compound 1-393]", "hTRPV3 (Homo sapiens (Human))", "> 1000 nM"),
    ("Oc1cc(-c2ccccc2)ccc1N1CC[C@@H](Oc2ccc(C(F)(F)F)cn2)C1 [Compound 1-89]", "hTRPV3 (Homo sapiens (Human))", "> 1000 nM"),
    ("CCc1ccccc1Oc1ccc(C2CCN(C(=O)c3cccc(C)n3)C2)c(C(N)=O)c1 (centres unmarked) [Compound 2-40]", "hTRPV3 (Homo sapiens (Human))", "> 1000 nM"),
    ("CCc1ccccc1-c1ccc(C2CCN(C(=O)c3ccc(C)cn3)C2)c(CO)c1 (centres unmarked) [Compound 2-50]", "hTRPV3 (Homo sapiens (Human))", "10 to 100 nM"),
    ("N#Cc1ccccc1-c1ccc(N2CC[C@H](Oc3ccc(C(F)(F)F)cn3)C2)c(CO)n1 [Compound 1-197]", "hTRPV3 (Homo sapiens (Human))", "10 to 100 nM"),
    ("OCCc1cc(Oc2ccccc2F)ccc1N1CC[C@H](Oc2ncccc2F)C1 [Compound 1-313]", "hTRPV3 (Homo sapiens (Human))", "10 to 100 nM"),
    ("Cc1cccc(C(O)c2ccc(N3CC[C@H](Oc4ncccc4Cl)C3)c(CO)c2)c1 (some centres unmarked) [Compound 1-281]", "hTRPV3 (Homo sapiens (Human))", "> 1000 nM"),
    ("Cc1cccc(Oc2ccc(N3CC[C@H](Oc4ncccc4Cl)C3)c(CO)c2)c1 [Compound 1-242]", "hTRPV3 (Homo sapiens (Human))", "10 to 100 nM"),
    ("CC(C)c1ccccc1Oc1ccc(N2CC[C@H](Oc3ccc(C#N)cn3)C2)c(CCO)c1 [Compound 1-362]", "hTRPV3 (Homo sapiens (Human))", "10 to 100 nM"),
]
